Reference source for all entries: ChEMBL document CHEMBL1153646

# experimental system: Protein farnesyltransferase (Homo sapiens, UniProt P49354+P49356)
# assay: In vitro inhibition of [3H]FPP incorporation into recombinant P21ras of NIH3T3 cells by farnesyl transferase
pIC50: −log10 of the molar value.
I would appreciate it if you labelled entries true when pIC50 is 5 or higher, otherwise false.

[
  {
    "given smiles": "CC[C@@H](C)[C@H](NC(=O)[C@@H](NC(=O)[C@H](CSC(=O)OCc1ccccc1)NC(=O)OCc1ccccc1)C(C)C)C(=O)N[C@@H](CCSC)C(=O)OC",
    "experimental system": "Protein farnesyltransferase (Homo sapiens, UniProt P49354+P49356)",
    "cat": "false"
  },
  {
    "given smiles": "COC(=O)[C@H](CCSC)NC(=O)c1cccc(CNC(=O)[C@@H](N)CS)c1",
    "experimental system": "Protein farnesyltransferase (Homo sapiens, UniProt P49354+P49356)",
    "cat": "false"
  },
  {
    "given smiles": "COC(=O)[C@H](CCSC)NC(=O)c1cccc(CNC(=O)[C@H](CS)NC(C)=O)c1",
    "experimental system": "Protein farnesyltransferase (Homo sapiens, UniProt P49354+P49356)",
    "cat": "false"
  },
  {
    "given smiles": "CSCC[C@H](NC(=O)c1cccc(CNC(=O)[C@@H](N)CS)c1)C(=O)O",
    "experimental system": "Protein farnesyltransferase (Homo sapiens, UniProt P49354+P49356)",
    "cat": "true"
  },
  {
    "given smiles": "CSCC[C@H](NC(=O)c1cccc(CNC(=O)[C@H](CS)NC(=O)OCc2ccccc2)c1)C(=O)O",
    "experimental system": "Protein farnesyltransferase (Homo sapiens, UniProt P49354+P49356)",
    "cat": "false"
  },
  {
    "given smiles": "CC[C@H](C)[C@H](NC(=O)[C@@H](NC(=O)[C@@H](N)CS)C(C)C)C(=O)N[C@@H](CCSC)C(=O)O",
    "experimental system": "Protein farnesyltransferase (Homo sapiens, UniProt P49354+P49356)",
    "cat": "true"
  },
  {
    "given smiles": "COC(=O)[C@H](CCSC)NC(=O)c1cccc(CNC(=O)[C@H](CSC(=O)OCc2ccccc2)NC(=O)OCc2ccccc2)c1",
    "experimental system": "Protein farnesyltransferase (Homo sapiens, UniProt P49354+P49356)",
    "cat": "false"
  }
]
